protocolText: Ussing chamber drug transport across adult intestinal tissue
measurementContext: human, Papp, mean ± SD, adult, S > M (serosal to mucosal)

# compoundStructureString, Papp at 4 µM (×10⁻⁶ cm/s)
rows = [
    ("CC(C)c1nc(N(C)S(C)(=O)=O)nc(-c2ccc(F)cc2)c1/C=C/[C@@H](O)C[C@@H](O)CC(=O)O", 11.2),
]

----------
Property: Papp; scope: individual compounds
protocolText: Ussing chamber drug transport across pediatric intestinal tissue
measurementContext: human, Papp, estimated marginal mean ± SE, pediatric, S > M (serosal to mucosal), mixed model
assayReadout: Papp (×10⁻⁶ cm/s)

# compound, assayReadout, quantitativeResult
data = [
    ("CC(C)NCC(O)COc1cccc2ccccc12 (centres unmarked)", "Papp", 7.74),
    ("CC(C)c1nc(N(C)S(C)(=O)=O)nc(-c2ccc(F)cc2)c1/C=C/[C@@H](O)C[C@@H](O)CC(=O)O", "Papp", 7.53),
]

----------
protocolText: Ussing chamber drug transport across adult intestinal tissue
measurementContext: human

# molecule, efflux ratio
measured = [
    ("CC(C)c1nc(N(C)S(C)(=O)=O)nc(-c2ccc(F)cc2)c1/C=C/[C@@H](O)C[C@@H](O)CC(=O)O [Rosuvastatin]", 2.1),
]

----------
protocolText: Ussing chamber drug transport across pediatric intestinal tissue
measurementContext: human, Papp, mean ± SD, pediatric, M > S (mucosal to serosal)
Each entry below carries its reported Papp.
assayReadout: Papp (×10⁻⁶ cm/s)

# compound, readingUnit, quantitativeResult
records = [
    ("CC(C)c1nc(N(C)S(C)(=O)=O)nc(-c2ccc(F)cc2)c1/C=C/[C@@H](O)C[C@@H](O)CC(=O)O [Rosuvastatin]", "×10⁻⁶ cm/s", 4.73),
    ("CC(C)NCC(O)COc1cccc2ccccc12 (centres unmarked) [Propranolol]", "×10⁻⁶ cm/s", 7.49),
]

----------
protocolText: Ussing chamber drug transport across adult intestinal tissue
measurementContext: human, Papp, estimated marginal mean ± SE, adult, S > M (serosal to mucosal), mixed model

# molecule, readingUnit, Papp
data = [
    ("CC(C)c1nc(N(C)S(C)(=O)=O)nc(-c2ccc(F)cc2)c1/C=C/[C@@H](O)C[C@@H](O)CC(=O)O [Rosuvastatin]", "×10⁻⁶ cm/s", 11.2),
    ("CC(C)NCC(O)COc1cccc2ccccc12 (centres unmarked) [Propranolol]", "×10⁻⁶ cm/s", 10.3),
]

----------
The molecules listed here are annotated with their Papp.
protocolText: Ussing chamber drug transport across pediatric intestinal tissue
measurementContext: human, Papp, estimated marginal mean ± SE, pediatric, M > S (mucosal to serosal), mixed model
assayReadout: Papp (×10⁻⁶ cm/s)

# molecule, readingUnit, quantitativeResult
measured = [
    ("CC(C)c1nc(N(C)S(C)(=O)=O)nc(-c2ccc(F)cc2)c1/C=C/[C@@H](O)C[C@@H](O)CC(=O)O", "×10⁻⁶ cm/s", 3.8),
    ("CC(C)NCC(O)COc1cccc2ccccc12 (centres unmarked)", "×10⁻⁶ cm/s", 7.98),
]

----------
protocolText: Ussing chamber drug transport across adult intestinal tissue
measurementContext: human, Papp, mean ± SD, adult, S > M (serosal to mucosal)
Below: a set of entries, each annotated with reported Papp.

# compound, Papp, ×10⁻⁶ cm/s
rows = [
    ("CC(C)NCC(O)COc1cccc2ccccc12 (centres unmarked)", 10.7),
    ("CC(C)c1nc(N(C)S(C)(=O)=O)nc(-c2ccc(F)cc2)c1/C=C/[C@@H](O)C[C@@H](O)CC(=O)O", 11.2),
]
